Sourced from PubChem BioAssay

Biological target: Neurogenic locus notch homolog protein 3 (Homo sapiens) (UniProt Q9UM47)
Sequence (Q9UM47 whole entry, looked up): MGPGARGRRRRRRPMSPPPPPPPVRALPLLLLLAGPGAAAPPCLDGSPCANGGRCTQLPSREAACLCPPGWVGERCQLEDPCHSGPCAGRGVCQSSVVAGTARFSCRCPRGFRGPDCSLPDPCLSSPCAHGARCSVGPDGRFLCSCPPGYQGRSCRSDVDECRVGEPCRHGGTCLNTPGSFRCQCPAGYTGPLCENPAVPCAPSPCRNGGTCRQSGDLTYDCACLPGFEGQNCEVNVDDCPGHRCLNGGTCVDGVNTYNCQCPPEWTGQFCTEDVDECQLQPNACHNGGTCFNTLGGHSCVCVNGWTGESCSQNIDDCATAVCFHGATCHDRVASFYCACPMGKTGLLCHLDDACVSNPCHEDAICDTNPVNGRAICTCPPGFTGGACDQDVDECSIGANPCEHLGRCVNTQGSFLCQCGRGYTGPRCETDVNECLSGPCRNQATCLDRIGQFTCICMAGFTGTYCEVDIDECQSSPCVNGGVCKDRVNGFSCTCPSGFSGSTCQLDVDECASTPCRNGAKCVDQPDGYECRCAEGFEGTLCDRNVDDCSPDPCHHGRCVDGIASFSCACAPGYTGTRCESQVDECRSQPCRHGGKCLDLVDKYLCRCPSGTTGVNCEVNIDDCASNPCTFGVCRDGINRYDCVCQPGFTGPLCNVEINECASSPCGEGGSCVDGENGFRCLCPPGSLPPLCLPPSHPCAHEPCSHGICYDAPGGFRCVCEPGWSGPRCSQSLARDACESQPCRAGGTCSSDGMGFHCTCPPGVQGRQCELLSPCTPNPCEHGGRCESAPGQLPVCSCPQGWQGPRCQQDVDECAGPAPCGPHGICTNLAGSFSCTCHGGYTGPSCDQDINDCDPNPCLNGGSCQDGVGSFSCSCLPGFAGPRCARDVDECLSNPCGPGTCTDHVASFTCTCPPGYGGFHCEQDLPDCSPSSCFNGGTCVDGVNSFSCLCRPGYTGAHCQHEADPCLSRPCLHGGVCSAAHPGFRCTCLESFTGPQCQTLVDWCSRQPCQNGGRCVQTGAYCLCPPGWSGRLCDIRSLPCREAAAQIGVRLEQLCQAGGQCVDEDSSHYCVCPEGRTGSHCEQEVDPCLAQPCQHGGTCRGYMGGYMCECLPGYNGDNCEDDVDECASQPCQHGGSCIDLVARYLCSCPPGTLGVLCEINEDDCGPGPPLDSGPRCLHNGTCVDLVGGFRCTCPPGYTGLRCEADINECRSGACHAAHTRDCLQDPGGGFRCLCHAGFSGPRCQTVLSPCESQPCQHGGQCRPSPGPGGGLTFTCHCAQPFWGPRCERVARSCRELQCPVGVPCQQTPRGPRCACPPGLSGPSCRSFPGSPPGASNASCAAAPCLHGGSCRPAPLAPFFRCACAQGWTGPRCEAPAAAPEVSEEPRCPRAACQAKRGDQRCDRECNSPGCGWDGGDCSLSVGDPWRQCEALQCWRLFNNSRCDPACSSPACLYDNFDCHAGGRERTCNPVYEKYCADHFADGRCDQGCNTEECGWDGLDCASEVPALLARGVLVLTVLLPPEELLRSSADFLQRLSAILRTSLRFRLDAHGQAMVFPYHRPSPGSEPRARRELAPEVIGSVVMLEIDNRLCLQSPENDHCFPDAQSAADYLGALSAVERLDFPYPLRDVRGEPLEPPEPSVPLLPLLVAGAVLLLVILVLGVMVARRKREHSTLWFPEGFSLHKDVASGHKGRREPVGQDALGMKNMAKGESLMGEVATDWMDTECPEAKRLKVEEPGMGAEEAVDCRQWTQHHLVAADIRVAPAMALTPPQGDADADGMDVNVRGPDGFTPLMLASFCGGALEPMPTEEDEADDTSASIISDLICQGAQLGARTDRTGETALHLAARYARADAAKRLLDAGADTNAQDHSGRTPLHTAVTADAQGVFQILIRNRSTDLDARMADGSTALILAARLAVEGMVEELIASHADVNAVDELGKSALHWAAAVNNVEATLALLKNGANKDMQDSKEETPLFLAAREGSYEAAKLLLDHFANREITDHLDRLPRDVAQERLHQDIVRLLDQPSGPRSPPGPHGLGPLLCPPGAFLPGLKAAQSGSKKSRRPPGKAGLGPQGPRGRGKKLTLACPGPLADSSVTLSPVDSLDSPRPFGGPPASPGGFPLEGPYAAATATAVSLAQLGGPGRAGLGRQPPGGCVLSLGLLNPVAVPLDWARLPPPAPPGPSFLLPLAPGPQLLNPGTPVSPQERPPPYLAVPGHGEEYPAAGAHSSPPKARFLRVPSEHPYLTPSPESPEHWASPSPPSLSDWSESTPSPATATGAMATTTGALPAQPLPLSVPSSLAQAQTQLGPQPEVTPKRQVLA
Experiment: NOTCH3 binders on small-molecule microarray, primary screen, biochemical, 635/667 nm fluorescence (AID 1096)
Settings: NOTCH3 binding, 635 nm fluorescence, higher = more signal
Overview of recorded composite z-score for various molecules
RESULT_TYPE: composite z-score

>>> reported_result("COCOc1ccc(Br)cc1C(=O)C=Cc1ccc2c(c1)OCO2")
0.0871
>>> reported_result("O=C1[C@H]2[C@H]3[C@H](O)[C@H](O)CC(=NOCc4ccccc4)[C@H]3CC[C@H]2C(=O)N1C1CCCCC1")
1.14
>>> reported_result("CC(=O)OC[C@H]1O[C@H](CC=NOC[C@@H](O)COCc2ccco2)C=C[C@@H]1OC(C)=O")
-0.084
>>> reported_result("CO[C@H]1COC(=O)CCC[C@H](C)[C@@H](OC)COC(=O)CC=C[C@@H]1C")
0.0682
>>> reported_result("CC(CCN1CCc2nc(-c3ccccc3)c(-c3ccccc3)cc2C1)=NO[C@@H](C)c1cc(-c2c(C)cc(C)cc2C)no1")
-1.29
>>> reported_result("CC(=O)OC[C@H]1O[C@H](CC=NO[C@H](C)c2cn([C@@H]3COC[C@H]3O)nn2)C=C[C@@H]1OC(C)=O")
0.212
>>> reported_result("COc1ccc(COC(=O)NN=C2C[C@@H](O)[C@@H](O)[C@@H]3[C@@H]4C(=O)N([C@@H](C)c5ccccc5)C(=O)[C@@H]4CC[C@@H]23)cc1")
0.128
>>> reported_result("C#CCCCON=C1[C@H]2CCn3c(=O)n(Cc4cc5c(cc4Cl)OCO5)c(=O)n3[C@H]2[C@H](O)[C@@H]2O[C@H]12")
0.836

----------
Test system: glycogen synthase kinase-3 (GSK3A per assay name; protocol says GSK3B)
Assay: GSK3 binders on small-molecule microarrays, primary screen, biochemical, small-molecule microarray, 635 nm fluorescence, GSK3A (AID 1103); further: the record names both GSK3A and GSK3B
Conditions: small-molecule microarray binding, fluorescence 635 nm; higher = more signal
Readings of composite z-score for the listed compounds
RESULT_TYPE: composite z-score

>>> reported_result("CC(=O)OC[C@H]1O[C@H](CC=NOC[C@@H](O)[C@H]2O[C@@H]3OC(C)(C)O[C@@H]3[C@H]2O)C=C[C@@H]1OC(C)=O")
0.529
>>> reported_result("O=C1[C@H]2[C@H]3[C@H](O)[C@H](O)CC(=NO[C@@H]4O[C@H](CO)[C@@H](O)[C@H](O)[C@H]4O)[C@@H]3CC[C@H]2C(=O)N1C[C@@H]1CCCO1")
0.839
>>> reported_result("CO[C@H]1COC(=O)[C@H](C)COC(=O)[C@H](C)NC(=O)CC=C[C@H]1C")
1.24
>>> reported_result("CCOC(=O)CCN1C(=O)[C@H]2[C@H]3[C@H](O)[C@H](O)CC(=NOCC=C(C)CCC=C(C)C)[C@H]3CC[C@H]2C1=O")
-0.709
>>> reported_result("C[C@H]1CC[C@H]2C(=O)N[C@H](Cc3ccccc3)C(=O)N2[C@@H]1c1ccccc1")
-0.0595
>>> reported_result("O=C1C2=CC[C@H]3C(=O)N(c4ccc(F)cc4F)C(=O)[C@H]3[C@H]2[C@H](O)[C@@H]2O[C@H]12")
0.578
>>> reported_result("CON=C1c2cc(OC)ccc2O[C@H](c2cccc(OC)c2)[C@H]1O")
0.498
>>> reported_result("CC(=O)OC[C@H]1O[C@@H](ON=C(C)C)[C@H](OC(C)=O)[C@@H](OC(C)=O)[C@@H]1OC(C)=O")
-1.28
